Biological target: T1, T cell receptor (TCR) Vγ9 (TRGV9) (human, UniProt Q99603 21-122); further: test concentration or dose not given here
T1 chain (looked up): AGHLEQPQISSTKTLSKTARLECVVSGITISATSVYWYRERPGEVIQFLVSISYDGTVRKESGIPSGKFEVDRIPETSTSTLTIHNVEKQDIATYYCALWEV
Assay: cell-based or functional assay
Observable: CD71+ (Vg9+ cells), flow staining (%)
Hi! Could you send only the number? It should be in %, unit omitted.

A selection of reference data follows.
1) VG9B162 (antibody, human IgG1, lambda, V domains shown) VH: QVQLVESGAEVTKPGASVKVSCKASGYTFTGDYMHWVRQAPGQGLEWMGWINPNSGYTNYAQKFQGRVTMTRDTSISTAYMELSRLRSDDTAVYYCAREGDAFDVWGQGTMVTVSS VL: QLVLTQSSSASGSPGQSVTISCTGTSSDVGGYNYVSWYQQHPGKAPKLMIYEVSKRPSGVPDRFSGSKSGNTASLTVSGLQAEDEADYYCNSYAGSNNFEVFGGGTKLTVLG    70.3
2) VG9B33 (antibody, human IgG1, kappa, V domains shown) VH: EVQLVESGGGLVKPGGSLRLSCAASGFTFSSYNMNWVRQAPGKGLEWVSSISTSSSYIYYADSVKGRFTISRDNAKNSLYLQMNGLRAEDTAVYYCARDTSVTKYPDTFDIWGQGTMVTVSS VL: DIVMTQSPSSLSASVGDRVTITCRASQDINNYLAWFQQKPGKVPNLLIYGASTLQSGVPSRFTGSGSGTDFTLTISSLQPEDVATYYCQKYNSAPFTFGPGTKVDIKR    95.2
3) VG9B36 (antibody, human IgG1, kappa, V domains shown) VH: QVQLVESGGGLVKPGGSLRLSCASSGFTFSSYGMYWVRQAPGKGLEWVSSISTGSSYIYYADSVKGRFTISRDNAKNSLYLQMNSLRAEDTAVYYCARDKGLAVTGYIMDVWGQGTTVTVSS VL: EIVLTQSPSSLSASVGDRVTITCQASQDISNYLNWYQQKPGKAPKLLIYDASNLETGVPSRFSGSGSGTDFTFTISSLQPEDIAIYYCQQYDNLPMYTFGQGTKVEIKR    89.4

### Prompt Quick one: CD71+ (Vg9+ cells), flow staining for VG9B67 (antibody, human IgG1, kappa, V domains shown) VH: EVQLVESGGGLVKPGGSLRLSCAASGFTFSSYTMNWVRQAPGKGLEWVSSISSSSSYIDYAESVKGRFTISRDNAKNSLYLQMNSLRAEDTAVYYCARDGDILATIRGSFDYWGQGTTVTVSS VL: DIVMTQTPLSLPVTPGEPASISCRSSQSLLDSDAGNTYLDWYLQKPGQSPQLLIYTLSYRASGVPDRFSGSGSGTDFTLKISRVEAEDVAIYYCMQRIEFPITFGQGTKVEIKR ?
### Response 87.4

### Prompt Need CD71+ (Vg9+ cells), flow staining of VG9B127 (antibody, human IgG1, kappa, V domains shown) VH: QVQLVESGGGLVKPGGSLRLSCTASGFTFGAYTMNWVRQAPGKGLEWVSSISSSSSYIDFAESVKGRFTISRDNAKNSLYLQMISLRAEDTAVYYCARDGDIVSTIRGSFDYWGQGALVTVSS VL: EIVMTQSPLSLPVTPGEPASISCRSSQSLLDSDDGNTYLDWYLQKPGQSPQLLIYTLSYRASGVPDRFSGSGSGTDFTLKISRVEAEDVGIYYCMQRIEFPITFGQGTKVEIKR , thanks.
### Response 96.5

### Prompt Fill in the blank: the reported CD71+ (Vg9+ cells), flow staining of VG9B44 (antibody, human IgG1, kappa, V domains shown) VH: QVQLQQSGPGLVKPSQTLSLTCAISGDSVSSNSAAWNWIRQSPSRGLEWLGRTYYRSKWYNDYPISVKSRISINPDTSKNQFSLQLNSVTPEDTAVYYCARESGSYYTDGFDIWGQGTMVTVSS VL: DIQMTQSPSFLSASVGDRVTITCRASQGISSYLAWYQQKPGKAPKLLIYAASTLQSGVPSRFSGSGSGTEFTLTISSLQPEDFATYYCQEFNSYPYTFGQGTKLEIKR is ____.
### Response 98.8
